Molecular target: T1, human PD-1 expressed on cells (human, UniProt Q15116 25-288)
T1 construct: whole, on cells; also called CHO-K1/huPD-1; CHO-K1-hPD-1 cells
T1 sequence (Q15116 25-288): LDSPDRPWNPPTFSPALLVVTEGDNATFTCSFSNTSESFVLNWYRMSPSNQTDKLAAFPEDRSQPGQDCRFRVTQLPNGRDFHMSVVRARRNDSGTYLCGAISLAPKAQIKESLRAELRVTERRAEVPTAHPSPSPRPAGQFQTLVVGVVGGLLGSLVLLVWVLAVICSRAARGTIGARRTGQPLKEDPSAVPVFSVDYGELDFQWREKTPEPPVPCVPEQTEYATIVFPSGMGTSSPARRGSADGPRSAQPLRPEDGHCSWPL
Assay: cell RBA FACS; competitor PD-L1/Fc
pIC50: −log10 of the molar value.

- Binder: "HumAb713-5 (antibody, human IgG1, kappa, L234A L235A, V domains shown, humanized mAb713) VH: EVQLVESGGGLVQPGGSLRLSCAASGFTFSDYGMHWVRQAPGKGLEWVSYISSGSYTIYYADTVKGRFTISRDNAKNSLYLQMNSLRDEDTAVYYCARRGGSSHVNVMDYWGQGTTVTVSS VL: DIQMTQSPSSLSASVGDRVTITCKASDHINNWLAWYQQKPGKAPKLLIYGATSLETGVPSRFSGSGSGTDYTFTISSLQPEDIATYYCQQYWSPPYTFGGGTKVEIKR"
  pIC50: 9.04
- Binder: "HumAb713-1 (antibody, human IgG1, kappa, L234A L235A, V domains shown, humanized mAb713) VH: EVQLVESGGGLVQPGGSLRLSCAASGFTFSDYGMHWVRQAPGKGLEWVSYISSGSYTIYYADTVKGRFTISRDNAKNSLYLQMNSLRDEDTAVYYCARRGGSSHVNVMDYWGQGTTVTVSS VL: DIQMTQSPSSLSASVGDRVTITCKASDHINNWLAWYQQKPGKAPKLLIYGATSLETGVPSRFSGSGSGTDFTFTISSLQPEDIATYYCQQYWSPPYTFGGGTKVEIKR"
  pIC50: 9.30

Where do the numbers come from? From patent US20210188980A1.
